Test: Bioavailability after single dose: sublingual tablets (Examples I-III) versus conventional oral tablets, crossed randomized studies
Settings: male, human, plasma, po
Readout: concentration at 0 min (ng/mL)
Give bare numbers, in ng/mL.

What concentration at 0 min value was documented for this molecule, O=C1Nc2ccc(Cl)cc2C(c2ccccc2Cl)=NC1O (stereo not shown) ?
0

----------
Kindly supply the reported concentration values for the records listed here.
Test: Bioavailability after single dose: sublingual tablets (Examples I-III) versus conventional oral tablets, crossed randomized studies
Details: male, human, plasma, other: sublingual
Numbers only, in ng/mL.

- Compound: "O=C1CN=C(c2ccccn2)c2cc(Br)ccc2N1"
  Unit abbreviation: "ng/mL"
  Recorded value: 67.9

Please examine the following record next.
What concentration value was documented for this compound, O=C1Nc2ccc(Cl)cc2C(c2ccccc2Cl)=NC1O (centres unmarked) ?
28.3

----------
Kindly supply the reported concentration at 24 h values for the records listed here.
Assay: Bioavailability after single dose: sublingual tablets (Examples I-III) versus conventional oral tablets, crossed randomized studies
Conditions: male, human, plasma, po
One number for each entry, in ng/mL.

- Compound: "O=C1Nc2ccc(Cl)cc2C(c2ccccc2Cl)=NC1O (centres unmarked)"
  Recorded value: 10.6

What concentration at 24 h value was documented for this compound, O=C1CN=C(c2ccccn2)c2cc(Br)ccc2N1 ?
30.2

----------
Kindly supply the reported concentration at 0 min values for the records listed here.
Experiment: Bioavailability after single dose: sublingual tablets (Examples I-III) versus conventional oral tablets, crossed randomized studies
Details: male, human, plasma, other: sublingual
Experimental: Three studies were carried out, each of them with eight healthy volunteers of the male sex, recruited after information on the nature and characteristics of the principles included in the scope of the study. Each study, composed of two periods of treatment, was carried out according to a crossed and randomized scheme. […]
Give bare numbers, in ng/mL.

- Compound: "O=C1Nc2ccc(Cl)cc2C(c2ccccc2Cl)=NC1O (centres unmarked)"
  Recorded value: 0

Please examine the following record next.
What concentration at 0 min value was documented for this compound, O=C1CN=C(c2ccccn2)c2cc(Br)ccc2N1 ?
0

----------
Kindly supply the reported concentration at 12 h values for the records listed here.
Experiment: Bioavailability after single dose: sublingual tablets (Examples I-III) versus conventional oral tablets, crossed randomized studies
Settings: male, human, plasma, po

The following compounds each have a reported value; give each one's concentration at 12 h.
1. O=C1Nc2ccc(Cl)cc2C(c2ccccc2Cl)=NC1O (centres unmarked)
2. O=C1CN=C(c2ccccn2)c2cc(Br)ccc2N1

1. 13.5 ng/mL
2. 37.9 ng/mL

----------
Kindly supply the reported concentration at 20 min values for the records listed here.
Assay: Bioavailability after single dose: sublingual tablets (Examples I-III) versus conventional oral tablets, crossed randomized studies
Settings: male, human, plasma, other: sublingual
Kindly format the answer as number then unit.

- Compound: "O=C1CN=C(c2ccccn2)c2cc(Br)ccc2N1"
  Recorded value: "80.8 ng/mL"

Please examine the following record next.
What concentration at 20 min value was documented for this compound, O=C1Nc2ccc(Cl)cc2C(c2ccccc2Cl)=NC1O (centres unmarked) ?
44.5 ng/mL

----------
Assay: Bioavailability after single dose: sublingual tablets (Examples I-III) versus conventional oral tablets, crossed randomized studies
Conditions: male, human, plasma, po
Readout: AUC(0-inf) (ng·h/mL)
Numbers only, in ng·h/mL.

The following compounds each have a reported value; give each one's AUC(0-inf).
1. O=C1CN=C(c2ccccn2)c2cc(Br)ccc2N1 [BROMAZEPAN, bromazepam]
2. O=C1Nc2ccc(Cl)cc2C(c2ccccc2Cl)=NC1O (centres unmarked) [LORAZEPAM, lorazepam]

[1760, 656]

----------
Kindly supply the reported concentration at 1 h values for the records listed here.
Experiment: Bioavailability after single dose: sublingual tablets (Examples I-III) versus conventional oral tablets, crossed randomized studies
Settings: male, human, plasma, po
Answers are plain numbers, in ng/mL.

- Compound: "O=C1Nc2ccc(Cl)cc2C(c2ccccc2Cl)=NC1O (centres unmarked)"
  Unit abbreviation: "ng/mL"
  Recorded value: 46.1

Please examine the following record next.
What concentration at 1 h value was documented for this compound, O=C1CN=C(c2ccccn2)c2cc(Br)ccc2N1 ?
117

----------
Assay: Bioavailability after single dose: sublingual tablets (Examples I-III) versus conventional oral tablets, crossed randomized studies
Details: male, human, plasma, other: sublingual
Kindly supply the reported concentration at 8 h values for the records listed here.
Kindly format the answer as number then unit.

The following molecules each have a reported value; give each one's concentration at 8 h.
1. O=C1CN=C(c2ccccn2)c2cc(Br)ccc2N1
2. O=C1Nc2ccc(Cl)cc2C(c2ccccc2Cl)=NC1O (centres unmarked)

1: 49.4 ng/mL; 2: 9.6 ng/mL

----------
Kindly supply the reported Tmax values for the records listed here.
Experiment: Bioavailability after single dose: sublingual tablets (Examples I-III) versus conventional oral tablets, crossed randomized studies
Conditions: male, human, plasma
Give bare numbers, in min.

- Compound: "O=C1CN=C(c2ccccn2)c2cc(Br)ccc2N1"
  Tmax [min]: 45

Please examine the following record next.
What Tmax value was documented for this compound, O=C1Nc2ccc(Cl)cc2C(c2ccccc2Cl)=NC1O (centres unmarked) ?
42.6

----------
Kindly supply the reported concentration at 4 h values for the records listed here.
Test: Bioavailability after single dose: sublingual tablets (Examples I-III) versus conventional oral tablets, crossed randomized studies
Settings: male, human, plasma, po
Answers are plain numbers, in ng/mL.

- Molecule: "O=C1Nc2ccc(Cl)cc2C(c2ccccc2Cl)=NC1O (centres unmarked)"
  Recorded value: 28.2

Please examine the following record next.
What concentration at 4 h value was documented for this molecule, O=C1CN=C(c2ccccn2)c2cc(Br)ccc2N1 ?
63.1

----------
Kindly supply the reported concentration at 12 h values for the records listed here.
Experiment: Bioavailability after single dose: sublingual tablets (Examples I-III) versus conventional oral tablets, crossed randomized studies
Settings: male, human, plasma, other: sublingual
Give bare numbers, in ng/mL.

- Compound: "O=C1Nc2ccc(Cl)cc2C(c2ccccc2Cl)=NC1O (centres unmarked)"
  Unit abbreviation: "ng/mL"
  concentration at 12 h: 14.5

Please examine the following record next.
What concentration at 12 h value was documented for this compound, O=C1CN=C(c2ccccn2)c2cc(Br)ccc2N1 ?
38.8

----------
Assay: Bioavailability after single dose: sublingual tablets (Examples I-III) versus conventional oral tablets, crossed randomized studies
Settings: male, human, plasma, other: sublingual
Readout: concentration at 4 h
Kindly format the answer as number then unit.

- Compound: "O=C1Nc2ccc(Cl)cc2C(c2ccccc2Cl)=NC1O (centres unmarked) [LORAZEPAM, lorazepam]"
  concentration at 4 h: "25.6 ng/mL"

What concentration at 4 h value was documented for this compound, O=C1CN=C(c2ccccn2)c2cc(Br)ccc2N1 [BROMAZEPAN, bromazepam] ?
63.4 ng/mL

----------
Test: Bioavailability after single dose: sublingual tablets (Examples I-III) versus conventional oral tablets, crossed randomized studies
Details: male, human, plasma
Readout: AUC(0-inf) (µg·h/mL)
Give bare numbers, in µg·h/mL.

- Compound: "O=C1CN=C(c2ccccn2)c2cc(Br)ccc2N1"
  Recorded value: 1.9

Please examine the following record next.
What AUC(0-inf) value was documented for this compound, O=C1Nc2ccc(Cl)cc2C(c2ccccc2Cl)=NC1O (centres unmarked) ?
0.621

----------
Assay: Bioavailability after single dose: sublingual tablets (Examples I-III) versus conventional oral tablets, crossed randomized studies
Details: male, human, plasma, po
Readout: concentration at 40 min
Kindly format the answer as number then unit.

- Compound: "O=C1CN=C(c2ccccn2)c2cc(Br)ccc2N1"
  Readout: "concentration at 40 min"
  Recorded value: "91.7 ng/mL"

Please examine the following record next.
What concentration at 40 min value was documented for this compound, O=C1Nc2ccc(Cl)cc2C(c2ccccc2Cl)=NC1O (centres unmarked) ?
41 ng/mL

----------
Assay: Bioavailability after single dose: sublingual tablets (Examples I-III) versus conventional oral tablets, crossed randomized studies
Settings: male, human, plasma, po
Kindly supply the reported concentration at 6 h values for the records listed here.
Give bare numbers, in ng/mL.

- Molecule: "O=C1Nc2ccc(Cl)cc2C(c2ccccc2Cl)=NC1O (centres unmarked) [LORAZEPAM, lorazepam]"
  Recorded value: 22.6

Please examine the following record next.
What concentration at 6 h value was documented for this molecule, O=C1CN=C(c2ccccn2)c2cc(Br)ccc2N1 [BROMAZEPAN, bromazepam] ?
53.4

----------
Test: Bioavailability after single dose: sublingual tablets (Examples I-III) versus conventional oral tablets, crossed randomized studies
Settings: male, human, plasma, other: sublingual
Readout: concentration at 2.5 h (ng/mL)
Answers are plain numbers, in ng/mL.

The following compounds each have a reported value; give each one's concentration at 2.5 h.
1. O=C1Nc2ccc(Cl)cc2C(c2ccccc2Cl)=NC1O (centres unmarked) [LORAZEPAM, lorazepam]
2. O=C1CN=C(c2ccccn2)c2cc(Br)ccc2N1 [BROMAZEPAN, bromazepam]

1: 32.2; 2: 74.2

----------
Kindly supply the reported Cmax values for the records listed here.
Assay: Bioavailability after single dose: sublingual tablets (Examples I-III) versus conventional oral tablets, crossed randomized studies
Settings: male, human, plasma, po
One number for each entry, in ng/mL.

- Molecule: "O=C1Nc2ccc(Cl)cc2C(c2ccccc2Cl)=NC1O (centres unmarked) [LORAZEPAM, lorazepam]"
  Cmax, ng/mL: 54.4

What Cmax value was documented for this molecule, O=C1CN=C(c2ccccn2)c2cc(Br)ccc2N1 [BROMAZEPAN, bromazepam] ?
125
